Provenance of the data: a melting point compilation (Tetko et al.; mined from patent text by program, amines drawn as free bases though some values may be those of a salt)

outcome measure: melting point

| structure smiles | result |
| --- | --- |
| COc1cccc(NC(=O)c2sccc2S(=O)(=O)Nc2onc(C)c2Br)c1 | 200 to 202 °C |
| C=C1CCCN(Cc2ccc(OC)cc2)C1=O | 145 to 155 °C |
| Cc1ccc(-n2cc(-c3cccn4nc(Nc5ccc(C6CCNCC6)cc5)nc34)cn2)cc1 | 216 to 218 °C |

----------
| compound | melting point |
| --- | --- |
| O=C(NC/C=C\COc1cc(CN2CCCCC2)ccn1)c1cn[nH]c1 | 121 to 123 °C |
| COC(=O)Oc1ccc(N=C(C#N)c2ccccc2)cc1 | 145 to 146 °C |
| Cc1nc(N2CCN(CCCC(F)(F)F)C2=O)sc1C(=O)NCc1cccnc1 | 167 to 169 °C |
| COC(=O)c1nc(Cl)c(F)c(N)c1Cl | 128 to 131 °C |
| CCOC(=O)C(C)COc1ccccc1-c1cc(C#N)c(=O)[nH]c1C (configuration not stated) | 167 to 170 °C |
| Cn1c(-c2ccc(Br)cc2)cc2ccccc21 | 114 to 115 °C |
| CCCC1=NN(c2ccc(Br)cc2)C(=O)C1=CNc1ccccc1CC | 127 °C |
| CC(C)c1cccc(C(C)C)c1NC(=O)CNC(c1cccc(C(F)(F)F)c1)c1cccc(C(F)(F)F)c1 | 144 to 145 °C |
| COC(=O)[C@H](Cc1c[nH]cn1)NC(=O)C(CCCCc1ccccc1)Cc1cccc2ccccc12 (some centres not stated) | 45 to 47 °C |
| CC(=O)NCCNC(=O)CCCCC1CCSS1 (configuration not stated) | 145 to 146 °C |
| CS(=O)(=O)c1cc(OCC(O)CNC2CCC(c3ccc(C(=O)N4CCC(C(O)c5ccccc5)CC4)cc3)CC2)ccc1O (configuration not stated) | 120 °C |
| O=C(NCCCC(=O)N1CCCC1=O)c1cc(Br)no1 | 141 to 142 °C |

----------
Reported melting point by item:
outcome measure: melting point

| molecule | result |
| --- | --- |
| CC(C)n1c(=O)n(CC2CO2)c2cc(-c3ncc(C(F)(F)F)cc3Cl)ccc21 (stereo not drawn) | 110 to 111 °C |
| C[C@@H]1C[C@](C)(O)[C@H](C)N1c1ccc(C#N)c(Cl)c1 | 132 to 133 °C |
| CC(=O)N(c1ccc(F)cc1Cl)S(=O)(=O)CCl | 89 to 92 °C |

----------
Reported melting point values for a set of compounds

| compound | melting point |
| --- | --- |
| O=C(O)c1ccc(NC(O)C(=O)c2ccc(OCC3CCCCC3)cc2)cc1 (stereo not drawn) | 188 to 190 °C |
| Cc1c(C)c2c(c(C)c1NC=O)CC(C)(CSc1ccccc1)O2 (stereo not drawn) | 130 to 131 °C |
| CN(C)C(=O)Nc1ccc(OCc2nc(Cl)ccc2Cl)cc1 | 162 °C |

----------
| compound | melting point |
| --- | --- |
| CCCCNc1c(C(=O)OCC)c(C)nc(Cl)c1[N+](=O)[O-] | 33 to 35 °C |
| Cc1noc(NS(=O)(=O)c2cccc(Cl)c2Cl)c1Br | 166 to 169 °C |
| C#CCN1C(=O)COc2cc(F)c(-n3c(=O)oc4c(c3=O)CCC4)cc21 | 222 to 224 °C |
| O=C(NCCCc1ccncc1)N(CCC12CC3CC(CC(C3)C1)C2)CC(F)(F)F | 106 to 107 °C |
| Nc1nc2ccccc2c2c1ncn2Cc1ccncc1 | > 300 °C |
| COc1ccc(OC)c2c1C[C@](O)(CC#N)CC2=O | 160 to 162 °C |
| CSCc1c(N)c(C#N)cc(F)c1F | 109 to 110 °C |
| COc1ccc(C)cc1-c1cc2ccccc2[nH]1 | 119 °C |
| CCCCOc1ccc(C=CC(=O)NCCN(O)C(N)=O)cc1 | 127 to 129 °C |
| COCCOc1ccc(CCNC(=O)C=Cc2ccccc2)cc1S(N)(=O)=O | 133 °C |
| COc1cc2c(c3oc(C(=O)O)cc(=O)c13)CCC(C)(C)O2 | 225 to 226 °C |
| COc1cc2c(cc1OC)C(=O)C(=Cc1ccc(O)cc1)CC2 | 197 to 199 °C |
| CCOC(=O)c1c(NC2CCCCC2)c(C#N)c(=O)n2ccccc12 | 140 to 141 °C |
| CCOC(=NC(=O)c1ccccc1C(F)(F)F)c1ccccc1Cl | 64 to 65 °C |
| O=c1c2cccnc2c(-c2cccc([N+](=O)[O-])c2)nn1Cc1ccccc1 | 132 °C |
| CCNc1nc2c(N)nc3ccccc3c2n1CC(C)(C)O | 233 to 235 °C |
| O=C(Nc1ccc(Cl)cc1)c1ccc([N+](=O)[O-])cc1 | 233 to 235 °C |
| N=C(Nc1cccc(NC(=O)C=Cc2ccccc2)c1)c1ccccc1 | 115 to 117 °C |
| COc1ccc2c(c1)-c1n[nH]c(-c3ccncc3)c1CCC2 | 200 to 201 °C |
| CCOC(=O)c1ccc(-c2cnc3c(c2)NC(=O)CN3)cc1 | > 200 °C |
| O=C(O)c1ccccc1C(=O)c1ccc(N2CCOCC2)cc1O | 184 to 187 °C |
| Cc1nc(-c2ccc(Cl)cc2Cl)sc1C(=O)NCCCCN1CCC(c2ccc3c(c2OCCO)CCCC3)CC1 | 122 to 124 °C |
| Cc1ccccc1-n1c(Cn2cnc3c(N)ncnc32)nc2cccc(C)c2c1=O | 282 to 283 °C |
| O=C1Nc2ccccc2N2CCc3cc(Cl)cc1c32 | 232 to 233 °C |
| O=c1c2cccc(O)c2oc2cc(O)cc(O)c12 | 211 to 213 °C |
| CCOC(=O)c1cccn2c(S(=O)(=O)Cl)c(C)nc12 | 182 to 183 °C |
| CC1(C)C=Cc2cc(S(=O)(=O)c3ccccc3)ccc2O1 | 95 to 96 °C |
| Cc1oc(-c2ccccc2)nc1COc1ccc(C=CC=O)cc1F | 133 to 134 °C |
| CC(=O)Oc1cc([N+](=O)[O-])ccc1CBr | 76.5 to 78 °C |
| CCC(O)(CC)c1ccc(-c2ccc(OCc3ccc(CO)c(CO)c3)cc2)c(C)c1 | 97 °C |
| O=C(c1cccc(Br)c1)C(Br)C(Br)c1ccc(Br)cc1 (stereo unspecified) | 158 °C |
